Tested on: ACHN renal
testSummary: NCI tumour cell line growth inhibition, 48 h; in the data active = GI50 below about 0.43 µM; inactive = the rest
*1 amine or outer side, *2 acyl side, *3 side chain or, on linkers, in order; H or OH if unused. Where a SMILES comes first, the peptide text is derived from it. Bridges are numbered along the chain shown (N, C = ends). Roman numbers before positions name the chains, in order. [ ]: non-standard residue; d: D form. Actinocin(9to1) = Cc1c2oc3c(C)ccc(C(=O)[*:1])c3nc-2c(C(=O)[*:2])c(N)c1=O; NMeV = CN[CH](C(=O)O)C(C)C; Sar = CNCC(=O)O
Choose one outcome from this list and give only that: label 1 (active), label 0 (inactive)

Q. Hi, sorry to bother you, what did the test record for Cc1c2oc3c(C)ccc(C(=O)OC(C)C4NC(=O)C(C(C)C)N(C)C(=O)CN(C)C(=O)C5CCCN5C(=O)C(C(C)C)NC4=O)c3nc-2c(C(=O)OC(C)C2NC(=O)C(C(C)C)N(C)C(=O)CN(C)C(=O)C3CCCN3C(=O)C(C(C)C)NC2=O)c(N)c1=O (configuration not stated) (I: cyclo([Sar][NMeV]TVP) / II: cyclo([Sar][NMeV]TVP); linker I:3-II:3 via Actinocin(9to1); configuration not given here) ?
A. label 1

Q. # iterate: O=C1OCC(c2ccc(O)cc2)=C1c1cc(O)c(O)c(O)c1
A. label 0
